System: A498 renal
Procedure details: NCI-60 one-dose screen, 48 h (100 = growth as untreated, 0 = no growth, -100 = all killed)
Conditions used: 10 µM unless noted
The panel holds about 83,000 compounds, 20% with a hit somewhere; the sample as a whole holds those more often. Calls of active or inactive are those of the source. How the source made its calls: active means growth percent below 10; inactive means the rest.
Measured endpoint: growth

Example entries and their recorded answers appear below.
query: Sample CCCCCNCCCCCNc1cc(OC)cc2cccnc12 — what was its growth?
result: 75% (inactive)

query: Which growth value belongs to CN(C)CCOc1nc2c3cccnc3cc(-c3cccc(Cl)c3)c2c2ncccc12 ?
result: 43.7% (inactive)

query: Given the molecule COc1cc(C2CC(c3ccc(Cl)cc3)=NN2C=O)ccc1OS(=O)(=O)c1ccc(C)cc1 (stereo not given) , what is its reported growth?
result: 74.1% (inactive)

query: Which growth value belongs to C1=C\CCCCN2CC[C@H]3[C@H](CCCC/C=C\CCCN4C[C@@H](CCCCC/1)C[C@@H]3C4)C2 ?
result: -11.8% (active)

--- query ---
query: What measured growth goes with CCOC(=O)NNc1cccc(Cl)c1 ?
result: 85.5% (inactive)

----------
System: BT-549 breast
Procedure details: NCI-60 one-dose screen, 48 h
Conditions used: 10 µM unless noted
About 83,000 compounds went through this panel and 20% of them were active in at least one assay; those are over-represented in the sample as a whole. Activity calls are given as the source filed them. Rule for the calls: active = growth percent below 10; inactive = the rest.
Hi there, use one of these labels in your reply, thanks! active, inactive

As a guide, the following entries are already answered.
query: Hi team, can someone confirm the assay call for CCC1CCc2nc3sc(C(=O)Nc4cccc(F)c4)c(N)c3cc2C1 (stereo not given) ?
result: inactive

query: What classification did CC(C)N1CCN(c2ccncc2S(=O)(=O)N2CCN(C)CC2)CC1 end up with in this test?
result: inactive

query: Field: outcome | Entry: COc1cccc(NC(=O)[C@H](C(C)C)n2c(=O)[nH]c3ccccc3c2=O)c1
result: inactive

query: Which result was noted for this compound in the test: O=C1Cc2c([nH]c3ccc([N+](=O)[O-])cc23)-c2ccccc2N1
result: active

query: // outcome(item) with item = C/C(=C\C(=N\N=C(N)N)c1ccc(Cl)cc1)c1ccc(Cl)cc1
result: active

Query compound follows.
query: Test call, this compound: COc1c(C(=O)/C=C/c2ccc(C)o2)c(O)cc2occc12
result: inactive

----------
Tested on: SNB-19 CNS
Procedure details: NCI-60 one-dose screen, 48 h
Conditions used: 10 µM unless noted
Compounds without any hit were thinned out: in the full panel of roughly 83,000, 20% have a hit. The source made the active and inactive calls. Rule for the calls: active = growth percent below 10; inactive = the rest.
Mark one answer only. Choices: active, inactive

These solved cases illustrate the format of a correct answer.
query: Could you check what this test reported for N#Cc1c(NN)n(C2OC(CO)C(O)C2O)c2ncnc(N)c12 (centres undefined) ?
result: inactive

query: Answer briefly: the call reported for O=C(Nc1ccc2[nH]c3ccccc3c2c1)c1ccccc1Cl in this assay.
result: inactive

query: What classification did CN1CCN(Cc2ccc(NC(=O)c3cccc(C#Cc4cnc(N)c5ncccc45)c3F)cc2C(F)(F)F)CC1 end up with in this test?
result: inactive

query: Kindly provide the recorded test outcome for the following molecule: COc1cc(/C=C/C(=O)c2ccc(NC(=O)CSc3nnc(-c4ccc(Cl)cc4)n3-c3ccccc3)cc2)cc(OC)c1OC
result: inactive

query: Kindly provide the recorded test outcome for the following molecule: COc1ccc(-c2[nH]nc(N)c2-c2cc(OC)c(OC)c(OC)c2)cc1
result: inactive

Continuing:
query: Could you kindly confirm the outcome this assay logged for CC(=O)c1cccc(Nc2ncnc3ccc(NC(=O)c4ccco4)cc23)c1 ?
result: inactive

query: Which outcome was assigned to C[C@]12CCc3nc(Nc4ccc(O)cc4)sc3C1=CC[C@@H]1[C@@H]2CC[C@]2(C)/C(=N/NC(N)=S)CC[C@@H]12 in this test?
result: active

query: Dear all, I need the recorded test outcome for CC(CN1CCN(C)CC1)CN1c2ccccc2Sc2ccc(C(F)(F)F)cc21 (centres undefined) , thank you.
result: inactive

query: Each molecule tested received a call. Report the one for N#Cc1nc(-c2ccc(Cl)cc2)cc(-c2ccc(Nc3nc(N4CCCCC4)nc(N4CCCCC4)n3)cc2)c1N .
result: inactive
